assayed_system: human Trk A kinase (Homo sapiens, UniProt P04629)
Construct: HIS tag; made in house; host or cells: SF9 insect cells
Sequence (P04629 442-796): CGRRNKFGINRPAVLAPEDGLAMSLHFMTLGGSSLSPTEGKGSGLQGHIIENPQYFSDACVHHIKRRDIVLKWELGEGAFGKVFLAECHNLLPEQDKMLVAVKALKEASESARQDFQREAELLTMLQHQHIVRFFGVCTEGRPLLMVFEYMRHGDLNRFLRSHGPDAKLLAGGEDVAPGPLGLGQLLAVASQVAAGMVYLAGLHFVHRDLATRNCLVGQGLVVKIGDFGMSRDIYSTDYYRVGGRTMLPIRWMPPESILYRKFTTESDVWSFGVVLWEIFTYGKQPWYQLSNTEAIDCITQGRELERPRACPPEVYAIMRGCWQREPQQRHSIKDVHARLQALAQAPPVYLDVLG
method: Trk A Assay (Alphascreen kinase assay)
Format: biochemical
condition_details: intracellular domain of HIS-tagged human Trk A, 70 μM ATP, PolyEY-biotin substrate, 20 minutes room temperature; read-out: IC50 (μM), Trk inhibitory activity
measured_property: IC50 (µM)
Give bare numbers, in µM.

// known answers, use as guide
Fc1ccc(CNc2ccc3ncn(-c4cc(C5CC5)[nH]n4)c3n2)cc1 0.022
Fc1ccc(CNc2ccc3ncn(-c4cc(C5CC5)[nH]n4)c3c2)cc1 0.015

Pending compound:
[ask] // lookup IC50 for `Fc1ccc(CNc2ncc3ncn(-c4cc(C5CC5)[nH]n4)c3n2)cc1`
[reply] 0.02
